Entries and their measured polymerase ribozyme fitness (log ratio) follow.
B1: TPR 5TU (parent)
chain: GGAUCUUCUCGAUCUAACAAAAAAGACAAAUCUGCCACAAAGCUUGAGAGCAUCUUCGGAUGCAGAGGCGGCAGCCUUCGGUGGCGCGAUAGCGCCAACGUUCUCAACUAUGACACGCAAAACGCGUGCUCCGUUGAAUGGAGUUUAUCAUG

- Variants of: B1
- procedure-text: polymerase ribozyme fitness, log enrichment relative to wild type (log ratio); higher = more active; in vitro selection for triplet polymerase activity
This sample holds only a part of the variants without activity.
property-label: polymerase ribozyme fitness (log ratio)

INSERT INTO results (sequence_change, val) VALUES
  ('U55A G83A G124A', -0.748),
  ('U55A G58C A97G', 0.512),
  ('C43U U53G', '≤ -4.2'),
  ('U9C C18U G71C U82A C85G U146G A150C', '≤ -4.2'),
  ('C38U G70A', -2.9),
  ('G50A U55A A97C A147U U148A', '≤ -4.2'),
  ('U7C A16C C35U C63U A121G G133C', '≤ -4.2'),
  ('A49C C69U G84A C93U C96U C129G U148C', '≤ -4.2'),
  ('C38U A73G U101A', -0.277),
  ('A21U A52G A66C G128A', '≤ -4.2'),
  ('G67U G117A U151A', '≤ -4.2');
